- Target Of Assay: glucagon receptor (GCGR) overexpressed CHO-K1 cells or human primary hepatocytes (Homo sapiens)
- Construct: expressed in transfected cells; host or cells: GCGR overexpressed CHO-K1 cells or human primary hepatocytes (endogenous receptor)
- Experimental Protocol: Glucagon cAMP inhibition assay (Cisbio cAMP Dynamic 2 HTRF)
- Format: cell-based
- Details: inhibition of glucagon (EC50 concentration) induced cAMP production
Value Kind: IC50 cAMP (nM)

Consider the reported IC50 cAMP for these compounds:
{"Smi": "CC(C)[C@@H](COc1ccc(-c2ccc(C(F)(F)F)cc2F)nc1)Nc1ccc(C(=O)NCCC(=O)O)cc1", "Endpoint Value": 1206}
{"Smi": "CC[C@H](C)[C@@H](COc1ccc(-c2cc3ccccc3o2)cc1)Nc1ccc(C(=O)NCCC(=O)O)cc1", "Endpoint Value": 528}
{"Smi": "CCOC(=O)CCNC(=O)c1ccc(N[C@H](COc2ccc(-c3nc4ccccc4o3)cc2)C(C)C)cc1", "Endpoint Value": 170}

1: CC(C)C[C@@H](COc1cc(F)c(-c2ccc(C(F)(F)F)cc2)c(F)c1)Nc1ccc(C(=O)NCCC(=O)O)cn1
2: CCCC[C@@H](COc1ccc(-c2ccc(Cl)cc2Cl)nc1)Nc1ccc(C(=O)NCCC(=O)O)cc1
[ask] Smaller IC50 cAMP value? Options are 1 and 2 State your choice using its label.
[reply] 2

---

- Target Of Assay: glucagon receptor (GCGR) overexpressed CHO-K1 cells or human primary hepatocytes (Homo sapiens, UniProt P47871)
- Construct: expressed in transfected cells; host or cells: GCGR overexpressed CHO-K1 cells or human primary hepatocytes (endogenous receptor)
- Sequence (P47871 26-477): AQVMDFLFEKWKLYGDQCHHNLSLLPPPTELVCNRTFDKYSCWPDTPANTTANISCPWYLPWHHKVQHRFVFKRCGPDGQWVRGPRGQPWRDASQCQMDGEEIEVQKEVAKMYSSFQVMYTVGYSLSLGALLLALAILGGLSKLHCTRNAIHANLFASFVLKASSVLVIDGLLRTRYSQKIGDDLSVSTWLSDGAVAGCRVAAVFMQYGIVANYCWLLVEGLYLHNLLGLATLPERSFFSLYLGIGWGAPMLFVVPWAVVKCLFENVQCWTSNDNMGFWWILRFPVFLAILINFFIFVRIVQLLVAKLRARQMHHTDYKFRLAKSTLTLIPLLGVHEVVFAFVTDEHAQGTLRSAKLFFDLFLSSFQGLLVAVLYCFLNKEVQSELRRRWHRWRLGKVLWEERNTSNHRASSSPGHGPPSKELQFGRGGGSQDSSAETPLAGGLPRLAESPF
- Experimental Protocol: Glucagon cAMP inhibition assay (Cisbio cAMP Dynamic 2 HTRF)
- Assay type: cell-based
- Details: inhibition of glucagon (EC50 concentration) induced cAMP production
Value Kind: IC50 cAMP (nM)

Consider the reported IC50 cAMP for these compounds:
{"Compound": "CC[C@H](C)[C@@H](COc1ccc(-c2nnc(-c3ccccc3)o2)cc1)Nc1ccc(C(=O)NCCC(=O)O)cn1", "IC50 cAMP, nM": 11200}
{"Compound": "CC[C@H](C)[C@@H](COc1ccc(-c2cc3ccccc3o2)nc1)Nc1ccc(C(=O)NCCC(=O)O)cc1", "IC50 cAMP, nM": 863.9}
{"Compound": "CCC(C)[C@@H](COc1ccc(-c2ccc(C(F)(F)F)cc2)cc1)Nc1ccc(C(=O)NCCC(=O)O)cc1 (some centres unmarked)", "IC50 cAMP, nM": 839}
{"Compound": "CC(C)C[C@@H](COc1ccc(-c2ccc(C(F)(F)F)cc2)nn1)Nc1ccc(C(=O)NCCC(=O)O)cc1", "IC50 cAMP, nM": 7647}
{"Compound": "CC(C)C[C@@H](COc1cc(F)c(-c2cc(Cl)cc(Cl)c2)c(F)c1)Nc1ccc(C(=O)NCCC(=O)O)cc1", "IC50 cAMP, nM": 816}
{"Compound": "CC(C)C[C@@H](COc1cc(F)c(-c2ccc(C(F)(F)F)cc2Cl)c(F)c1)Nc1ccc(C(=O)NCCC(=O)O)cc1", "IC50 cAMP, nM": 811}
{"Compound": "CC(C)[C@@H](COc1ccc(-c2cc3ccccc3o2)cc1)Nc1ccc(C(=O)NCCC(=O)O)cn1", "IC50 cAMP, nM": 121.3}
{"Compound": "CC(C)[C@@H](COc1ccc(-c2ccc(C(F)(F)F)cc2Cl)nc1)Nc1ccc(C(=O)NCCC(=O)O)cc1", "IC50 cAMP, nM": 1805}

I: CCCC[C@@H](COc1ccc(-c2ccc(C(F)(F)F)cc2F)cc1)Nc1ccc(C(=O)NCCC(=O)O)cc1
II: CC[C@H](C)[C@@H](COc1ccc(-c2ccc(Cl)cc2Cl)cc1)Nc1ccc(C(=O)NCCC(=O)O)cc1
[ask] Lab note: record which item had the higher IC50 cAMP, I or II . State your choice using its label.
[reply] II

Reference source: patent US11384060B2
